Entries and their number of positive wells
test system: TA1537; conditions: TA1537, +S9, positive control compounds
measure-name: number of positive wells

compound=Nc1c2ccccc2nc2ccccc12 value_reported=24/48
compound=O=c1c(O)c(-c2ccc(O)c(O)c2)oc2cc(O)cc(O)c12 value_reported=5/48
compound="CN(N=O)C(=O)N[C@H]1C(O)O[C@H](CO)[C@@H](O)[C@@H]1O (mixture of isomers)" value_reported=1/48
compound=Nc1ccc2cc3ccccc3cc2c1 value_reported=6/48

* * *

test system: TA98; details: TA98, −S9, positive control compounds
Parameter number of positive wells: see the listing below.
measure-name: number of positive wells

compound="Nc1c2ccccc2nc2ccccc12 [Host 9-AA, 9-aminoacridine]" tgt=TA98 value_reported=0/48
compound="Nc1ccc2cc3ccccc3cc2c1 [Host 2-AA, 2-aminoanthracene]" tgt=TA98 value_reported=0/48
compound="O=c1c(O)c(-c2ccc(O)c(O)c2)oc2cc(O)cc(O)c12 [Quercetin]" tgt=TA98 value_reported=5/48
compound="CN(N=O)C(=O)N[C@H]1C(O)O[C@H](CO)[C@@H](O)[C@@H]1O (mixture of isomers) [Streptozotocin]" tgt=TA98 value_reported=0/48
